system: RXRa DBDmut IVT, anti-RXR (DBD mutation: RXRa K156A/R161A, NR concentration 90 nM); experiment: PBM binding z-score (relative to random genomic background probes); higher = stronger binding; sequences stand for … in GC…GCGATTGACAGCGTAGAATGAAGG
Reported PBM binding z-score values are given for each entry in this list.
Answer with the value's number alone.

API: value(readout=PBM binding z-score, system=RXRa DBDmut IVT, anti-RXR (DBD mutation: RXRa K156A/R161A, NR concentration 90 nM)) for record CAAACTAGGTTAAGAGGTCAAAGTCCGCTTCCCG 2.2

API: value(readout=PBM binding z-score, system=RXRa DBDmut IVT, anti-RXR (DBD mutation: RXRa K156A/R161A, NR concentration 90 nM)) for record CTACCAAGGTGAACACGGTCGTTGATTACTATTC 0.773

API: value(readout=PBM binding z-score, system=RXRa DBDmut IVT, anti-RXR (DBD mutation: RXRa K156A/R161A, NR concentration 90 nM)) for record AGAACGAGGTTACCAAAGATCAGGGAAACGCTTG 0.737

API: value(readout=PBM binding z-score, system=RXRa DBDmut IVT, anti-RXR (DBD mutation: RXRa K156A/R161A, NR concentration 90 nM)) for record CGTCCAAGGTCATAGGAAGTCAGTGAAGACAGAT 3.77

###

tested on: RXRa DBDmut IVT, anti-RXR (DBD mutation: RXRa K156A/R161A, NR concentration 90 nM); assay: PBM binding z-score (relative to random genomic background probes); higher = stronger binding; sequences stand for … in GC…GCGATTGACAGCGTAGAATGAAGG
Reported PBM binding z-score values are given for each entry in this list.
Answer with the value's number alone.

• TCTCGGAGGACACGAAAGCTCAGAGCTCGACATC = 0.558
• GCTGCTAGGTCAGGTTGGTCAGCCAACGGGTACG = 0.121
• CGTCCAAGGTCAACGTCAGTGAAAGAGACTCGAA = 3.49
• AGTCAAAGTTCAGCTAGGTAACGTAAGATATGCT = 3.2
• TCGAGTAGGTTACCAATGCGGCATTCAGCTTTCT = 0.365

Please turn your attention to the following entry.
Look up PBM binding z-score for this sequence: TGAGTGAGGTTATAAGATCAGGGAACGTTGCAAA 0.109

###

test system: PPARg DBDmut IVT, anti-PPARg (DBD mutation: PPARg1 K132A/R137A, NR concentration 270 nM); assay: PBM binding z-score (relative to random genomic background probes); higher = stronger binding; sequences stand for … in GC…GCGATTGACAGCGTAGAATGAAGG
Rule: satisfied for PBM binding z-score not less than 0.1, not satisfied for anything less.

- CCTAGCAGGCCAATCCGGGTCACTCAAGGCTTGA: not satisfied
- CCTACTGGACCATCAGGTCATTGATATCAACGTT: satisfied
- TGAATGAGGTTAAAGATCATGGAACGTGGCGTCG: not satisfied
- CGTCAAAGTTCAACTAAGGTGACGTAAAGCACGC: satisfied
- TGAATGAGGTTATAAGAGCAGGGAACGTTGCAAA: satisfied
- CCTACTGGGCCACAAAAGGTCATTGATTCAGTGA: satisfied
- TCTTGTAGAACAAAGGTTAAGAAAGCCGAAGCCT: satisfied
- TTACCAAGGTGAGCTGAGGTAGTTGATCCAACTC: not satisfied
- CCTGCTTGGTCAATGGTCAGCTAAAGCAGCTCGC: not satisfied
- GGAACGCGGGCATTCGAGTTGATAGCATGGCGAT: not satisfied

// inclusive: PBM binding z-score at least 0.1? input: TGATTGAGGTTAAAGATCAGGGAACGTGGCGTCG satisfied

// inclusive: PBM binding z-score at least 0.1? input: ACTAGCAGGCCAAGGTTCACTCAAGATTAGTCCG not satisfied

###

system: RARb homodimer (NR concentration 270 nM); test: PBM binding z-score (relative to random genomic background probes); higher = stronger binding; sequences stand for … in GC…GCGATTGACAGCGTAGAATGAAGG
testReadout: PBM binding z-score
Answer with the value's number alone.

Worked examples follow.
• TCATATAGGTGATACAGGTGAAAGTCGGCATCTA = 1.08
• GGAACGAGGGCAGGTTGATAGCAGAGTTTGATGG = 1.3
• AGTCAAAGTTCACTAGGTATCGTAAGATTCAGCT = 3.71

API: value(readout=PBM binding z-score, system=RARb homodimer (NR concentration 270 nM)) for record TCTTGTAGAGCAGCAGGTTAAGAAAGCTGGCCAA -0.584

###

tested on: RARg homodimer (NR concentration 270 nM); experiment: PBM binding z-score (relative to random genomic background probes); higher = stronger binding; sequences stand for … in GC…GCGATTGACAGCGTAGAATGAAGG
testReadout: PBM binding z-score
Answer with the value's number alone.

Worked examples follow.
• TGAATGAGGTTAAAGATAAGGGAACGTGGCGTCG = 1.32
• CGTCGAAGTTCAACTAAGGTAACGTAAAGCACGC = 3.67
• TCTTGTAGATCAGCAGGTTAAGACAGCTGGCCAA = -0.276
• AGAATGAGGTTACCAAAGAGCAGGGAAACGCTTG = 1.43
• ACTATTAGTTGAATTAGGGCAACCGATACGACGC = 0.997

Look up PBM binding z-score for this sequence: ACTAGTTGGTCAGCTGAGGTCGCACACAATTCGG 1.76

Look up PBM binding z-score for this sequence: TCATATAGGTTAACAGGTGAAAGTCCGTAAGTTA 1.57

Look up PBM binding z-score for this sequence: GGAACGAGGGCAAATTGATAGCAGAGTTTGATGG 1.67

Look up PBM binding z-score for this sequence: CGAACTAGGTCAGAACAGGACGGTGAAGGATGAT 3.17

Look up PBM binding z-score for this sequence: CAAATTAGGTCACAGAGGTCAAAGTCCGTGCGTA 7.81

Look up PBM binding z-score for this sequence: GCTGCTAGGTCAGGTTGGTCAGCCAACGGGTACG 3.65

Look up PBM binding z-score for this sequence: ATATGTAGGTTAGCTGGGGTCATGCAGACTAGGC 3.65

Look up PBM binding z-score for this sequence: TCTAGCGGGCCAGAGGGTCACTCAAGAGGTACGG 1.98

Look up PBM binding z-score for this sequence: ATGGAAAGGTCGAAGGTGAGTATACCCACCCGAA 3.87

###

Reported PBM binding z-score values are given for each entry in this list.
system: PPARa:RXRa (NR concentration 270 nM, RXRa partner concentration 90 nM); assay: PBM binding z-score (relative to random genomic background probes); higher = stronger binding; sequences stand for … in GC…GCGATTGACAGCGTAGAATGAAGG
Answer with the value's number alone.

Worked examples follow.
• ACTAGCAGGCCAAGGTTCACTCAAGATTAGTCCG = 2.89
• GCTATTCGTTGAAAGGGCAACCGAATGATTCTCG = 1.61
• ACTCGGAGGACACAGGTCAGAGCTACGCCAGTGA = 2.18
• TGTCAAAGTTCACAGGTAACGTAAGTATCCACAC = 6.02
• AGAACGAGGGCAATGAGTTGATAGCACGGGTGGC = 1.14
• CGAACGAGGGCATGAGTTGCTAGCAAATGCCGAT = 1.35
• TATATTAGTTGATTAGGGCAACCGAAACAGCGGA = 0.535
• TCAGACAGGTGAAGGTAACTCGGGTACGCAGTCG = 1.46

Look up PBM binding z-score for this sequence: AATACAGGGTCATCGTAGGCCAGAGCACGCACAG 5.79

Look up PBM binding z-score for this sequence: CAAACTAGGTCACCGGAAGATCAAAGTCCGCATG 5.66

Look up PBM binding z-score for this sequence: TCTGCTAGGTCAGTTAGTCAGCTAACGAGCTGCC 0.983

Look up PBM binding z-score for this sequence: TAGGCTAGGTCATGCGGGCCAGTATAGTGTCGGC 3.1

Look up PBM binding z-score for this sequence: CCTCAAAGTTCAACTAAGGTAACGTAAAGCACGC 5.12

###

test system: RARg:RXRa (NR concentration 270 nM, RXRa partner concentration 90 nM); test: PBM binding z-score (relative to random genomic background probes); higher = stronger binding; sequences stand for … in GC…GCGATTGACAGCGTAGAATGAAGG
Just so you know, the groups by PBM binding z-score go like this: low range: < 0.1; mid range: ≥ 0.1 and < 4; high range: ≥ 4

* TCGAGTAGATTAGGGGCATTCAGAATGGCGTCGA | low range

Which bin, given its PBM binding z-score, does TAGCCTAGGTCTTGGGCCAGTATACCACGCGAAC occupy? low range

Which bin, given its PBM binding z-score, does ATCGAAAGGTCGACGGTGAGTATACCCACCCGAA occupy? high range

Which bin, given its PBM binding z-score, does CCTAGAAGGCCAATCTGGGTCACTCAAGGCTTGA occupy? mid range
